Assay: Cell viability of murine macrophages (WST-1 mitochondrial respiration), in parallel with NO release
Assay type: cell-based
Settings: mouse, pH 7.2, CBD 0.05 weight % in mixture with NeutraZen 0.025%; read-out: Cell viability (% as compared to the negative control)

chemical-structure | result-units | viability at 25 h, 0.05 weight %
C=C(C)[C@@H]1CCC(C)=C[C@H]1c1c(O)cc(CCCCC)cc1O | % | 96.2

* * *

Experiment: Cell viability of murine macrophages (WST-1 mitochondrial respiration), in parallel with NO release
Type: cell-based
Conditions: mouse, pH 7.2, CBD 2.5 weight % in mixture with NeutraZen 0.025%; read-out: Cell viability (% as compared to the negative control)

compound | result-units | viability at 25 h, 2.5 weight %
C=C(C)[C@@H]1CCC(C)=C[C@H]1c1c(O)cc(CCCCC)cc1O [CBD] | % | 4.12

* * *

Assay: Cell viability of murine macrophages (WST-1 mitochondrial respiration), in parallel with NO release
Assay type: cell-based
Settings: mouse, pH 7.2, CBD 0.025 weight % in mixture with NeutraZen 0.05%; read-out: Cell viability (% as compared to the negative control)
measured-attribute: viability at 25 h, 0.025 weight % (%)

chemical-structure | recorded-result
C=C(C)[C@@H]1CCC(C)=C[C@H]1c1c(O)cc(CCCCC)cc1O | 99.1

* * *

Test: Cell viability of murine macrophages (WST-1 mitochondrial respiration), in parallel with NO release
Type: cell-based
Conditions: mouse, pH 7.2, CBD 0.1 weight % in mixture with NeutraZen 0.025%; read-out: Cell viability (% as compared to the negative control)

compound | viability at 25 h, 0.1 weight %
C=C(C)[C@@H]1CCC(C)=C[C@H]1c1c(O)cc(CCCCC)cc1O [CBD] | 100%

* * *

Test: Cell viability of murine macrophages (WST-1 mitochondrial respiration), in parallel with NO release
Assay type: cell-based
Details: mouse, pH 7.2, CBD 0.5 weight % in mixture with NeutraZen 0.025%; read-out: Cell viability (% as compared to the negative control)
Description: MURINS RAW 267.4 Macrophage cell line (Sigma-Aldrich, No. P6110401, Lot. 091006), low number of passages (less than 50). […] In parallel with the evaluation of the release of NO, the cell viability was measured to validate the tests. […] (5% CO2), the Optical Density (OD) of each well was read at a wavelength of 450 nm by an Infinite M200 Pro fluorescence-luminescence reader (TECAN). […]
measured-attribute: viability at 25 h, 0.5 weight % (%)

chemical-structure | recorded-result
C=C(C)[C@@H]1CCC(C)=C[C@H]1c1c(O)cc(CCCCC)cc1O | 6.95

* * *

Test: Cell viability of murine macrophages (WST-1 mitochondrial respiration), in parallel with NO release
Type: cell-based
Conditions: mouse, pH 7.2, CBD 0.25 weight % in mixture with NeutraZen 0.01%; read-out: Cell viability (% as compared to the negative control)

chemical-structure | viability at 25 h, 0.25 weight %
C=C(C)[C@@H]1CCC(C)=C[C@H]1c1c(O)cc(CCCCC)cc1O | 92.2%

* * *

Test: Cell viability of murine macrophages (WST-1 mitochondrial respiration), in parallel with NO release
Assay type: cell-based
Conditions: mouse, pH 7.2, CBD 0.1 weight % in mixture with NeutraZen 0.1%; read-out: Cell viability (% as compared to the negative control)
measured-attribute: viability at 25 h, 0.1 weight % (%)

compound | recorded-result
C=C(C)[C@@H]1CCC(C)=C[C@H]1c1c(O)cc(CCCCC)cc1O [CBD] | 97.1

* * *

Experiment: Cell viability of murine macrophages (WST-1 mitochondrial respiration), in parallel with NO release
Format: cell-based
Details: mouse, pH 7.2, CBD 0.1 weight % in mixture with NeutraZen 0.05%; read-out: Cell viability (% as compared to the negative control)
measured-attribute: viability at 25 h, 0.1 weight % (%)

compound | recorded-result
C=C(C)[C@@H]1CCC(C)=C[C@H]1c1c(O)cc(CCCCC)cc1O [CBD] | 100

* * *

Assay: Cell viability of murine macrophages (WST-1 mitochondrial respiration), in parallel with NO release
Type: cell-based
Details: mouse, pH 7.2, sample alone at 0.025 weight %; read-out: Cell viability (% as compared to the negative control)
measured-attribute: viability at 25 h, 0.025 weight % (%)

chemical-structure | result-units | recorded-result
C=C(C)[C@@H]1CCC(C)=C[C@H]1c1c(O)cc(CCCCC)cc1O | % | 98.3

* * *

Experiment: Cell viability of murine macrophages (WST-1 mitochondrial respiration), in parallel with NO release
Assay type: cell-based
Settings: mouse, pH 7.2, CBD 0.025 weight % in mixture with NeutraZen 0.025%; read-out: Cell viability (% as compared to the negative control)
measured-attribute: viability at 25 h, 0.025 weight % (%)

compound | result-units | recorded-result
C=C(C)[C@@H]1CCC(C)=C[C@H]1c1c(O)cc(CCCCC)cc1O [CBD] | % | 104

* * *

Assay: Cell viability of murine macrophages (WST-1 mitochondrial respiration), in parallel with NO release
Type: cell-based
Details: mouse, pH 7.2, CBD 1 weight % in mixture with NeutraZen 0.1%; read-out: Cell viability (% as compared to the negative control)
measured-attribute: viability at 25 h, 1 weight % (%)

chemical-structure | measured-attribute | result-units | recorded-result
C=C(C)[C@@H]1CCC(C)=C[C@H]1c1c(O)cc(CCCCC)cc1O | viability at 25 h, 1 weight % | % | 8.58

* * *

Assay: Cell viability of murine macrophages (WST-1 mitochondrial respiration), in parallel with NO release
Format: cell-based
Details: mouse, pH 7.2, CBD 0.5 weight % in mixture with NeutraZen 0.01%; read-out: Cell viability (% as compared to the negative control)
Procedure: MURINS RAW 267.4 Macrophage cell line (Sigma-Aldrich, No. P6110401, Lot. 091006), low number of passages (less than 50). […] In parallel with the evaluation of the release of NO, the cell viability was measured to validate the tests. […] (5% CO2), the Optical Density (OD) of each well was read at a wavelength of 450 nm by an Infinite M200 Pro fluorescence-luminescence reader (TECAN). […]

chemical-structure | viability at 25 h, 0.5 weight %, %
C=C(C)[C@@H]1CCC(C)=C[C@H]1c1c(O)cc(CCCCC)cc1O | 6.34

* * *

Assay: Cell viability of murine macrophages (WST-1 mitochondrial respiration), in parallel with NO release
Format: cell-based
Details: mouse, pH 7.2, CBD 1 weight % in mixture with NeutraZen 0.01%; read-out: Cell viability (% as compared to the negative control)
measured-attribute: viability at 25 h, 1 weight % (%)

chemical-structure | measured-attribute | recorded-result
C=C(C)[C@@H]1CCC(C)=C[C@H]1c1c(O)cc(CCCCC)cc1O | viability at 25 h, 1 weight % | 5.66

* * *

Assay: Cell viability of murine macrophages (WST-1 mitochondrial respiration), in parallel with NO release
Type: cell-based
Conditions: mouse, pH 7.2, CBD 0.25 weight % in mixture with NeutraZen 0.1%; read-out: Cell viability (% as compared to the negative control)

chemical-structure | viability at 25 h, 0.25 weight %, %
C=C(C)[C@@H]1CCC(C)=C[C@H]1c1c(O)cc(CCCCC)cc1O | 95.7

* * *

Assay: Cell viability of murine macrophages (WST-1 mitochondrial respiration), in parallel with NO release
Type: cell-based
Details: mouse, pH 7.2, CBD 0.05 weight % in mixture with NeutraZen 0.1%; read-out: Cell viability (% as compared to the negative control)
measured-attribute: viability at 25 h, 0.05 weight % (%)

chemical-structure | recorded-result
C=C(C)[C@@H]1CCC(C)=C[C@H]1c1c(O)cc(CCCCC)cc1O | 103

* * *

Test: Cell viability of murine macrophages (WST-1 mitochondrial respiration), in parallel with NO release
Assay type: cell-based
Conditions: mouse, pH 7.2, CBD 1 weight % in mixture with NeutraZen 0.05%; read-out: Cell viability (% as compared to the negative control)

compound | result-units | viability at 25 h, 1 weight %
C=C(C)[C@@H]1CCC(C)=C[C@H]1c1c(O)cc(CCCCC)cc1O [CBD] | % | 7.74

* * *

Experiment: Cell viability of murine macrophages (WST-1 mitochondrial respiration), in parallel with NO release
Format: cell-based
Conditions: mouse, pH 7.2, CBD 0.25 weight % in mixture with NeutraZen 0.05%; read-out: Cell viability (% as compared to the negative control)
Description: MURINS RAW 267.4 Macrophage cell line (Sigma-Aldrich, No. P6110401, Lot. 091006), low number of passages (less than 50). […] In parallel with the evaluation of the release of NO, the cell viability was measured to validate the tests. […] (5% CO2), the Optical Density (OD) of each well was read at a wavelength of 450 nm by an Infinite M200 Pro fluorescence-luminescence reader (TECAN). […]

chemical-structure | result-units | viability at 25 h, 0.25 weight %
C=C(C)[C@@H]1CCC(C)=C[C@H]1c1c(O)cc(CCCCC)cc1O | % | 98.6
